Source of measurements: patent US20230220057A1

- EXPERIMENTAL SYSTEM: recombinantly produced human-NGF (human, UniProt P01138 122-241, limits assumed)
- Sequence (P01138 122-241 limits assumed): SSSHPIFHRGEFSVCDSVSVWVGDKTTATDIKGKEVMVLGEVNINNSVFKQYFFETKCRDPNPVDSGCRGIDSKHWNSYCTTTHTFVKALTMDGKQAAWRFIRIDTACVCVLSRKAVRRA
- PROTOCOL NOTES: ELISA, human NGF coated, IgG titrated
- Description: NGF binding ELISA assay: In human NGF binding ELISA, Corning 3366 high binding 96 well plates were coated with recombinantly produced human-NGF at 1 μg per ml, 50 μl/well in 1×PBS, and incubated overnight at 4° C. The plates were washed and blocked with 250 μl of 1×PBS/1% BSA at least 30 minutes at room temperature. […] After adding the PNPP substrate, the ODs at 405 nm were read. […]
ASSAY METRIC: EC50 (ng/mL)
Value expressed in ng/mL; do not type the unit.

*Q* State its EC50: Ab13 (antibody, human IgG1, V domains shown) VH: EVQLVQSGAEVKKPGATVKISCKVSGYSFITYWISWVQQAPGKGLEWMGAIDPSDSDARYSPSFQGRVTITADTSTDTAYMELSSLRSEDTAVYYCAKSDPGYSGYSLLYGFDSWGQGTLVTVSS VL: DVVMTQSPLSLPVTLGQPASISCRSSQSLVQRNGNTYLSWFQQRPGQSPRLLIYQVSNRYSGVPDRFSGSGSGTDFTLKISRVEAEDVGVYYCGQGAHLPLTFGQGTKVEIK
*A* 0.043

*Q* Give recorded EC50. Ab15 (antibody, human IgG1, V domains shown) VH: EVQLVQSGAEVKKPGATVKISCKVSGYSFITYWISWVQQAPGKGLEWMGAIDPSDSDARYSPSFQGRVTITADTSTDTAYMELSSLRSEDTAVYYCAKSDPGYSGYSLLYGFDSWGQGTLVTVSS VL: DVVMTQSPLSLPVTLGQPASISCRSSQSLVQRNGNTYLSWYQQRPGQPPRLLIYQVSNRYSGVPDRFSGSGSGTDFTLKISRVEAEDVGVYYCGQGAHLPLTFGQGTKVEIK
*A* 0.046

*Q* Report EC50 for Ab23 (antibody, human IgG1, V domains shown) VH: EVQLVQSGAEVKKPGATVKISCKVSGYSFITYWISWVQQAPGKGLEWMGAIDPSDSDARYSPSFQGRVTITADKSTDTAYMELSSLRSEDTAVYYCAKSDPGYSGYSLLYGFDSWGQGTLVTVSS VL: DVVMTQSPLSLPVTLGQPASISCRSSQSLVQRNGNTYLSWFQQRPGQSPRLLIYQVSNRYSGVPDRFSGSGSGTDFTLKISRVEAEDVGVYYCGQGAHLPLTFGQGTKVEIK
*A* 0.0405
